Biological target: Protein phosphatase 1D (Homo sapiens) (UniProt O15297)
Sequence (whole entry): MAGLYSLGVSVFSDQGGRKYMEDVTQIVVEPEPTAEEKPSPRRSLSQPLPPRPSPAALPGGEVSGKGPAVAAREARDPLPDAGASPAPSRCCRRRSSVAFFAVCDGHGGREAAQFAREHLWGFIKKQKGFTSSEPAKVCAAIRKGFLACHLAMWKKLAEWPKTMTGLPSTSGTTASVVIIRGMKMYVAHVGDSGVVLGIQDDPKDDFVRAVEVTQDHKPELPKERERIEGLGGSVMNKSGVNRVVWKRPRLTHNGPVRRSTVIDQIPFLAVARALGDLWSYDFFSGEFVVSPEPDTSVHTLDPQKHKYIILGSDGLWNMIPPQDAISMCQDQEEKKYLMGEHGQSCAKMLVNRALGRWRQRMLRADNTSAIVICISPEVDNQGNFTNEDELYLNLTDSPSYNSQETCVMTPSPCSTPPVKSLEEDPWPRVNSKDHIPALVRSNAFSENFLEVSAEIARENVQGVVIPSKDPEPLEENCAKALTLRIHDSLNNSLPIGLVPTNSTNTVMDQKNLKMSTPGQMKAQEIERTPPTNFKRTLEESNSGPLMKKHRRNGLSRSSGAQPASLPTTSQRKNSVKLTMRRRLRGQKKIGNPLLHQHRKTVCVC
Experiment: Inhibition of recombinant human Wip1 (1 to 420 residues) using human ATM phosphopeptide (AFEEG-pS-QSTTIGY) as substrate at 100 uM incubated for 7 mins by Bio-mol green assay relative to control
ASSAY_READOUT: inhibition (%)

INSERT INTO measurements (smiles, assay_readout, unit_of_measure, value) VALUES
  ('O=C(O)c1cccc(CNc2ccccc2CCC2CCCCC2)c1', 'inhibition', '%', 88),
  ('O=C(CCCCC1CCCCC1)NCCCO', 'inhibition', '%', 4),
  ('O=C(CCCC1CCCCC1)NCCCO', 'inhibition', '%', 1),
  ('Nc1ccccc1CCC1CCCCC1', 'inhibition', '%', 3);
